experiment: Example 9: single-dose study in healthy human subjects 30-75 mg/kg and 20 mg/kg x 2 (PK)
Type: in vivo
conditionNotes: human, plasma; single oral dose 30 mg/kg
Experimental: Example 9 was a single-dose escalating study in healthy volunteers. The objectives of the study were to assess the safety, tolerability, pharmacokinetic, and pharmacodynamics of single ascending doses of Compound 1. The doses tested were 30, 40, 50, 60, and 75 mg/kg once daily and a regimen of 20 mg/kg twice a day, which extended the range of doses evaluated. This Example confirms the earlier results obtained with higher dosage, as described in Example 7. […]
reportedProperty: AUC(0-inf) (µg·h/mL)
Write the value in µg·h/mL as a bare number.

Answer with the recorded AUC(0-inf) of `COCCOCCOCCOc1cccc(C2=N[C@@](C)(C(=O)O)CS2)c1O` only.
161
